Cited source: ChEMBL document CHEMBL3085732

- tested.target: UniProtKB P35372
- experiment.notes: Antagonist activity at human mu opioid receptor transfected in CHO cells assessed as inhibition of […] [35S]GTPgammaS binding after 60 mins by scintillation counting analysis relative to control
- Assay type: functional, cell-based
Calls of active or inactive are those of the source. The calls are words filed in the database; no cut-off is given here.

[
  {
    "chemical.smiles": "COc1ccc2c(c1)[C@]13CCN(CC4CC4)[C@H](C2)[C@@H]1Cc1sc(NC(C)=O)nc1C3",
    "tested.target": "UniProtKB P35372",
    "Imax": "inactive"
  },
  {
    "chemical.smiles": "COc1ccc2c(c1)[C@]13CCN(CC4CC4)[C@H](C2)[C@@H]1Cc1sc(N)nc1C3",
    "tested.target": "UniProtKB P35372",
    "Imax": "inactive"
  },
  {
    "chemical.smiles": "Nc1nc2c(s1)C[C@H]1[C@H]3Cc4ccc(O)cc4[C@@]1(CCN3CC1CC1)C2",
    "tested.target": "UniProtKB P35372",
    "Imax": "49%"
  },
  {
    "chemical.smiles": "CNc1nc2c(s1)C[C@H]1[C@H]3Cc4ccc(OC)cc4[C@@]1(CCN3CC1CC1)C2",
    "tested.target": "UniProtKB P35372",
    "Imax": "inactive"
  },
  {
    "chemical.smiles": "Nc1nc2cc3c(cc2s1)C[C@@H]1[C@@H]2CCCC[C@]32CCN1CC1CC1",
    "tested.target": "UniProtKB P35372",
    "Imax": "inactive"
  },
  {
    "chemical.smiles": "CNc1nc2c(s1)C[C@H]1[C@H]3Cc4ccc(O)cc4[C@@]1(CCN3CC1CC1)C2",
    "tested.target": "UniProtKB P35372",
    "Imax": "27%"
  }
]

###

Recorded EC50, one value per entry.
- tested.target: Mu-type opioid receptor (Homo sapiens)
- Sequence (P35372 whole entry): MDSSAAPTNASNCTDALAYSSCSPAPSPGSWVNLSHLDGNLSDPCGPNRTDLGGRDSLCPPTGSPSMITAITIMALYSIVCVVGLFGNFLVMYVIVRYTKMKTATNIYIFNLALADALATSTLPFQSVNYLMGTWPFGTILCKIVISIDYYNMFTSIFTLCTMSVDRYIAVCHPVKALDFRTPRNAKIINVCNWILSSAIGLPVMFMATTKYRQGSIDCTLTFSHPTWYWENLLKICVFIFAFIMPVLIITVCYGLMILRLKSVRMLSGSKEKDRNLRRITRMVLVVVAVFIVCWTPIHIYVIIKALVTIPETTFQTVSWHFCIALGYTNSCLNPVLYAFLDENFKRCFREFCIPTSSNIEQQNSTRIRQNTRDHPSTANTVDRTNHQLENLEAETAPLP
- experiment.notes: Agonist activity at human mu opioid receptor transfected in CHO cells assessed as stimulation of [35S]GTPgammaS binding after 60 mins by scintillation counting analysis
metric: EC50 (nM)

[
  {
    "chemical.smiles": "COc1ccc2c(c1)[C@]13CCN(CC4CC4)[C@H](C2)[C@@H]1Cc1sc(NC(C)=O)nc1C3",
    "value": 80
  },
  {
    "chemical.smiles": "CNc1nc2c(s1)C[C@H]1[C@H]3Cc4ccc(OC)cc4[C@@]1(CCN3CC1CC1)C2",
    "value": 51
  },
  {
    "chemical.smiles": "CNc1nc2c(s1)C[C@H]1[C@H]3Cc4ccc(O)cc4[C@@]1(CCN3CC1CC1)C2",
    "value": 0.52
  },
  {
    "chemical.smiles": "COc1ccc2c(c1)[C@]13CCN(CC4CC4)[C@H](C2)[C@@H]1Cc1sc(N)nc1C3",
    "value": 39
  }
]
